These measurements were taken from ChEMBL document CHEMBL1255261.

assay: Cytotoxicity against human HeLaS3 cells assessed cell viability at 2 mM after 24 hrs by Alamar blue assay; type: cell-based, HeLa S3; details: read-out: Activity
For each of the compounds below, state its viability at 24 h, 2000 µM.
Reply with just the number (in %).

Recorded viability at 24 h, 2000 µM of Nc1nc2c(ncn2[C@@H]2O[C@H](CO)[C@@H](O)[C@H]2O)/c(=N\O)[nH]1 , please. 37

Another: NNc1nc(N)nc2c1ncn2[C@@H]1O[C@H](CO)[C@@H](O)[C@H]1O 57
